tested on: CCRF-CEM; test: NCI tumour cell line growth inhibition, 48 h
Active and inactive are the calls of the source. No stated cut-off is given here; in the data, active = GI50 up to about 1.1 µM and inactive = higher.
Pick one and only one: active, inactive

INPUT: Can you look up the reported call for `COC(=O)NC1=NNC(=O)c2ccccc2N1` for me?
OUTPUT: inactive

INPUT: Can you look up the reported call for `O=C1/C(=N/c2ccc(Nc3ccccc3)cc2)Oc2ccccc21` for me?
OUTPUT: inactive

INPUT: Can you look up the reported call for `N=C(N)N/N=C\c1c(-c2ccccc2)nc2sccn12` for me?
OUTPUT: inactive

INPUT: Can you look up the reported call for `O=C1C(S(=O)(=O)c2ccccc2)=C(CS(=O)(=O)c2ccccc2)[C@@H](OCc2ccccc2)[C@@H]1OCc1ccccc1` for me?
OUTPUT: inactive

INPUT: Can you look up the reported call for CC1=C(C(=O)OC(C)C)C(c2ccccc2[N+](=O)[O-])C(C(=O)OC(CO[N+](=O)[O-])CO[N+](=O)[O-])=C(C)N1 (stereo not given) for me?
OUTPUT: inactive

INPUT: Can you look up the reported call for CCC1=C(C(C)=O)[C@@H]2CCCCC[C@@H](C(=O)OC)C2C1=O (stereo not given in full) for me?
OUTPUT: inactive

INPUT: Can you look up the reported call for `O=C1c2ccccc2C(=O)C1(O)c1c[nH]c2ccccc12` for me?
OUTPUT: inactive

INPUT: Can you look up the reported call for C/C=C/OC1C(C2COC(C)(C)O2)OC2OC(C)(C)OC21 (stereo not given) for me?
OUTPUT: inactive

INPUT: Can you look up the reported call for `Cc1nc2c(nc1C)C(=O)C1=C(C2=O)C2C=CC1CC2` for me?
OUTPUT: active

INPUT: Can you look up the reported call for `Cc1cc(=O)oc2cc(OC(=O)Nc3ccccc3)ccc12` for me?
OUTPUT: inactive

###

I'd appreciate it if you could supply GI50 values for the items below.
tested on: DU-145; test: NCI tumour cell line growth inhibition, 48 h
The source made the active and inactive calls. Rule as the data show it: active = GI50 up to about 1.1 µM and inactive = higher.

INPUT: Item under review: `C(=N\c1ccc(-c2cc(-c3ccccc3)nc3ccc4ccccc4c23)cc1)/c1ccccc1` . Reported GI50?
OUTPUT: 20.7 µM (inactive)

INPUT: Item under review: O=C1CSC(c2c[nH]c3ccccc23)N1c1ccc(Cl)cc1 (stereo not given) . Reported GI50?
OUTPUT: > 100 µM (inactive)

INPUT: Item under review: `C=O.NNCCc1n[nH]c(=O)n1N` . Reported GI50?
OUTPUT: > 100 µM (inactive)

INPUT: Item under review: C/C=C(\C)C(=O)O[C@@H]1CC(C)(C)CC2C3=CCC4[C@]56CC[C@](O)(OC5)C(C)(C)C6CC[C@@]4(C)C3(C)CC[C@]21C(=O)O (stereo not given in full) . Reported GI50?
OUTPUT: > 100 µM (inactive)

INPUT: Item under review: `CC(C)(C)c1ccc(OCCOc2ccc(C(C)(C)C)cc2NC=O)c(NC=O)c1` . Reported GI50?
OUTPUT: 17.9 µM (inactive)

###

system: OVCAR-3; experiment: NCI tumour cell line growth inhibition, 48 h
The source made the active and inactive calls. No stated cut-off is given here; in the data, active = GI50 up to about 1.1 µM and inactive = higher.
test_readout: GI50

INPUT: Can you look up GI50 on OVCAR-3 for `CC1=NN(c2ccccc2)C(=O)C1=C1SCCS1` ?
OUTPUT: 34.9 µM (inactive)

INPUT: Can you look up GI50 on OVCAR-3 for `CCCCCCSC[C@H](OC(C)=O)[C@@H](OC(C)=O)[C@@H](OC(C)=O)[C@@H](COC(C)=O)OC(C)=O` ?
OUTPUT: 80.9 µM (inactive)

INPUT: Can you look up GI50 on OVCAR-3 for NC(=O)C(Nc1c(Cl)cccc1Cl)c1cc2cc(Br)ccc2nc1Cl (stereo unspecified) ?
OUTPUT: 52.8 µM (inactive)

INPUT: Can you look up GI50 on OVCAR-3 for `CN(c1ccccc1)c1c(Cl)c(=O)oc2c1ccc1occc12` ?
OUTPUT: > 100 µM (inactive)

INPUT: Can you look up GI50 on OVCAR-3 for `COc1ccc(/C=C\c2cc(OC)c3c(c2)OCO3)c(O)c1O` ?
OUTPUT: 4.78 µM (inactive)

INPUT: Can you look up GI50 on OVCAR-3 for `c1ccc([P+](c2ccccc2)(c2ccccc2)C2Sc3ccccc3S2)cc1` ?
OUTPUT: 14.5 µM (inactive)

INPUT: Can you look up GI50 on OVCAR-3 for FC1=C2CCCCCC2SC1(F)F (stereo unspecified) ?
OUTPUT: > 100 µM (inactive)

INPUT: Can you look up GI50 on OVCAR-3 for COc1ccccc1C(O)(c1ccccc1)C(O)(c1ccccc1)c1ccccc1OC (stereo unspecified) ?
OUTPUT: > 100 µM (inactive)

INPUT: Can you look up GI50 on OVCAR-3 for `CC(C)(C)OC(=O)N1C(C2=COc3ccccc3O2)=COc2cccnc21` ?
OUTPUT: 1.72 µM (inactive)

INPUT: Can you look up GI50 on OVCAR-3 for CC(C)=CCC(O)C1=CC(=O)c2c(O)ccc(O)c2C1=O (stereo unspecified) ?
OUTPUT: 1.14 µM (inactive)

INPUT: Can you look up GI50 on OVCAR-3 for C=C(CC[C@@H](C)[C@H]1CC[C@@]2(C)C3=C(CC[C@]12C)[C@@]1(C)CC[C@H](O)[C@@H](C)C1CC3)C(C)C (stereo partly specified) ?
OUTPUT: 1.77 µM (inactive)

INPUT: Can you look up GI50 on OVCAR-3 for O=C(CN1CCCC1)Nc1ccc2c(c1)C1Oc3ccccc3CC1CO2 (stereo unspecified) ?
OUTPUT: 57.5 µM (inactive)

INPUT: Can you look up GI50 on OVCAR-3 for COC1/C=C\C=C(/C)C(=O)NC2=CC(=O)C=C(C2=O)C(OC)C(C)CC(OC)C(OC)C(C)/C=C(/C)C1OC(N)=O (stereo unspecified) ?
OUTPUT: 1.49 µM (inactive)

INPUT: Can you look up GI50 on OVCAR-3 for `CC(=O)NNc1nc(C)c(C(/C=C/c2ccc(NC(C)=O)cc2)=N/NS(=O)(=O)c2ccc(C)cc2)s1` ?
OUTPUT: > 100 µM (inactive)

INPUT: Can you look up GI50 on OVCAR-3 for `CC(=O)c1cc2ccccc2[n+]([O-])c1N` ?
OUTPUT: > 100 µM (inactive)

INPUT: Can you look up GI50 on OVCAR-3 for `O=C(c1ccc(Cl)cc1Cl)N(C(=O)N1CCC(c2ccccc2)CC1)c1ccccc1` ?
OUTPUT: > 100 µM (inactive)

INPUT: Can you look up GI50 on OVCAR-3 for CC1(C)OCC(C2OC3OC(C)(C)OC3C2c2ccccc2)O1 (stereo unspecified) ?
OUTPUT: 34.4 µM (inactive)

INPUT: Can you look up GI50 on OVCAR-3 for COC(=O)C1=C(C)N2CCCOC2(C)C(C(=O)OC)C1c1cccc(Cl)c1 (stereo unspecified) ?
OUTPUT: 22.2 µM (inactive)

INPUT: Can you look up GI50 on OVCAR-3 for `Nc1ccc(C2=N/C(=C\c3cccc(N)c3)C(=O)O2)cc1` ?
OUTPUT: > 100 µM (inactive)

INPUT: Can you look up GI50 on OVCAR-3 for `CC1=CC(=O)c2ccccc2C1=O` ?
OUTPUT: 11.1 µM (inactive)

INPUT: Can you look up GI50 on OVCAR-3 for `O=C(O)/C=C/C(=O)Nc1nc[nH]n1` ?
OUTPUT: > 100 µM (inactive)

All figures here come from ChEMBL document CHEMBL1201862.
